Listed next: entries and their corresponding koff.
# tested-system: D-VEGF, synthetic D-protein form of VEGF-A(8-109) (Homo sapiens (Human)) (UniProt P15692)
# Sequence (P15692 214-315 limits assumed, form in doubt): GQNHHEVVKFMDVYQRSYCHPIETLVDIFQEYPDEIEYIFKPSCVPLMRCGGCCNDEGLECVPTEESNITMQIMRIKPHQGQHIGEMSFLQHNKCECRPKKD
# assay-notes: SPR (ProteOn XPR36), D-VEGF immobilized

binder | unit-abbrev | koff
E01-D39F/S38G (designed binder) MKIEEHHHHHHHHHHGGSTYKLILNGKTLKGETTTEAVDVYDAFDVFFVYAASNFGFFDDWTYDDATKTFTVTEGGSDK | s⁻¹ | 0.00131
E01-D39F/A34S (designed binder) MKIEEHHHHHHHHHHGGSTYKLILNGKTLKGETTTEAVDVYDAFDVFFVYASSNFSFFDDWTYDDATKTFTVTEGGSDK | s⁻¹ | 0.00174
E01-D39F/S35R (designed binder) MKIEEHHHHHHHHHHGGSTYKLILNGKTLKGETTTEAVDVYDAFDVFFVYAARNFSFFDDWTYDDATKTFTVTEGGSDK | s⁻¹ | 0.00183
E01-D39F/S35G (designed binder) MKIEEHHHHHHHHHHGGSTYKLILNGKTLKGETTTEAVDVYDAFDVFFVYAAGNFSFFDDWTYDDATKTFTVTEGGSDK | s⁻¹ | 0.00193
E01 (recombinant, His-tagged) (designed binder) MKIEEHHHHHHHHHHGGSTYKLILNGKTLKGETTTEAVDVYDAFDVFFVYAASNFSDFDDWTYDDATKTFTVTEGGSDK | s⁻¹ | 0.00117
